Data credit: PubChem BioAssay (NCATS)

# Assay details: Cell Viability - LYMP2-018 (AID 985);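 note: compound exposure lasted 24 hr at 37 °C; nearly all actives have a fitted effect of over 50% in size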
# Measurement parameters: LYMP2-018 lymphoblastoid cells, viability (qHTS); series mostly up to 92.2 µM
Results filed as inconclusive are left out. Calls of active or inactive are those of the source. Calls come from the whole dose curve; as a rule, active = well fitted cell-killing curve with a large enough effect; inconclusive = small, poorly fitted or top-dose-only effect; inactive = flat fitted curve, though single readings scatter.
In this exercise, the only acceptable responses are active, inactive

A selection of reference data follows.
## Input Outcome logged for CCC(C)Nc1ccc(NC(C)CC)cc1 (centres undefined) in this assay:
## Output active

## Input Which outcome was assigned to O=C(OCC(COC(=O)c1ccccc1)(COC(=O)c1ccccc1)COC(=O)c1ccccc1)c1ccccc1 in this test?
## Output inactive

## Input Which result was noted for this molecule in the test: CC(=O)Nc1ccc(C(=O)CCl)cc1
## Output active

Others:
## Input Dear colleague, could you share the recorded outcome for C=C(C)c1ccccc1 when you have a moment?
## Output inactive

## Input What was the test verdict on CNc1ccc(O)cc1 ?
## Output active

## Input I'd appreciate the recorded outcome for O=C1OC(O)C(C(Cl)Cl)=C1Cl (centres undefined) from this test.
## Output active

## Input Query: recorded result category for Nc1ccc2cc3ccccc3cc2c1 in this test
## Output inactive

## Input Hey, what did the test say about O=C=Nc1ccc(Cc2ccc(N=C=O)cc2)cc1 ?
## Output inactive

## Input Tell me the recorded outcome of this test for CN1[C@H]2CC(OC(=O)[C@H](CO)c3ccccc3)C[C@H]1[C@H]1O[C@H]12 (some centres undefined) .
## Output inactive
